Tested on: Malme-3M
Assay: Anticancer activity against human Malme-3M cells assessed as cell growth inhibition incubated for 48 hrs by SRB assay
Format: functional

[
  {
    "Query Smiles": "COc1cc2cc(Oc3ccc(NC(=O)Nc4ccc(Cl)c(C(F)(F)F)c4)cc3)c(C)nc2cc1OCCN1CCOCC1",
    "Study System": "Malme-3M",
    "GI50 [nM]": 1520
  },
  {
    "Query Smiles": "COc1cc2cc(Oc3ccc(NC(=O)Nc4cc(C(F)(F)F)cc(C(F)(F)F)c4)cc3)c(C)nc2cc1OCCN1CCOCC1",
    "Study System": "Malme-3M",
    "GI50 [nM]": 1200
  },
  {
    "Query Smiles": "COc1cc2cc(Oc3ccc(NC(=O)Nc4ccc(F)c(C(F)(F)F)c4)cc3)c(C)nc2cc1OCCN1CCOCC1",
    "Study System": "Malme-3M",
    "GI50 [nM]": 1570
  },
  {
    "Query Smiles": "CNC(=O)c1cc(Oc2ccc(NC(=O)Nc3ccc(Cl)c(C(F)(F)F)c3)cc2)ccn1",
    "Study System": "Malme-3M",
    "GI50 [nM]": 2000
  }
]

---

Tested on: IGROV-1
Assay: Anticancer activity against human IGROV-1 cells assessed as cell growth inhibition incubated for 48 hrs by SRB assay
Type: functional

[
  {
    "Query Smiles": "COc1cc2cc(Oc3ccc(NC(=O)Nc4cc(C(F)(F)F)cc(C(F)(F)F)c4)cc3)c(C)nc2cc1OCCN1CCOCC1",
    "GI50, µM": 1.54
  },
  {
    "Query Smiles": "COc1cc2cc(Oc3ccc(NC(=O)Nc4ccc(Cl)c(C(F)(F)F)c4)cc3)c(C)nc2cc1OCCN1CCOCC1",
    "GI50, µM": 2.43
  },
  {
    "Query Smiles": "COc1cc2cc(Oc3ccc(NC(=O)Nc4ccc(F)c(C(F)(F)F)c4)cc3)c(C)nc2cc1OCCN1CCOCC1",
    "GI50, µM": 2.69
  },
  {
    "Query Smiles": "CNC(=O)c1cc(Oc2ccc(NC(=O)Nc3ccc(Cl)c(C(F)(F)F)c3)cc2)ccn1",
    "GI50, µM": 2.51
  }
]

---

Catalogue of compounds with associated GI50
Tested on: UACC-257
Test: Anticancer activity against human UACC-257 cells assessed as cell growth inhibition incubated for 48 hrs by SRB assay
Assay type: functional
Recorded Endpoint: GI50 (nM)

[
  {
    "Compound": "CNC(=O)c1cc(Oc2ccc(NC(=O)Nc3ccc(Cl)c(C(F)(F)F)c3)cc2)ccn1 [SORAFENIB]",
    "Numeric Readout": 2000
  },
  {
    "Compound": "COc1cc2cc(Oc3ccc(NC(=O)Nc4ccc(F)c(C(F)(F)F)c4)cc3)c(C)nc2cc1OCCN1CCOCC1",
    "Numeric Readout": 1750
  },
  {
    "Compound": "COc1cc2cc(Oc3ccc(NC(=O)Nc4ccc(Cl)c(C(F)(F)F)c4)cc3)c(C)nc2cc1OCCN1CCOCC1",
    "Numeric Readout": 1570
  },
  {
    "Compound": "COc1cc2cc(Oc3ccc(NC(=O)Nc4cc(C(F)(F)F)cc(C(F)(F)F)c4)cc3)c(C)nc2cc1OCCN1CCOCC1",
    "Numeric Readout": 1400
  }
]

---

Experiment: Aqueous solubility of compound by HPLC analysis
Type: physicochemical
Listed below: log10(solubility) values for each entry.
Recorded Endpoint: log10(solubility) (log10 of the value in µM)

[
  {
    "Query Smiles": "CNC(=O)c1cc(Oc2ccc(NC(=O)Nc3ccc(Cl)c(C(F)(F)F)c3)cc2)ccn1",
    "Numeric Readout": 0.51
  },
  {
    "Query Smiles": "COc1cc2cc(Oc3ccc(NC(=O)Nc4cc(C(F)(F)F)cc(C(F)(F)F)c4)cc3)c(C)nc2cc1OCCN1CCOCC1",
    "Numeric Readout": 2.50
  },
  {
    "Query Smiles": "COc1cc2cc(Oc3ccc(NC(=O)Nc4cc(C(F)(F)F)cc(C(F)(F)F)c4)cc3)c(C)nc2cc1OC",
    "Numeric Readout": 2.33
  },
  {
    "Query Smiles": "COc1cc2cc(Oc3ccc(NC(=O)Nc4ccc(F)c(C(F)(F)F)c4)cc3)c(C)nc2cc1OCCN1CCOCC1",
    "Numeric Readout": 2.70
  },
  {
    "Query Smiles": "COc1cc2cc(Oc3ccc(NC(=O)Nc4ccc(Cl)c(C(F)(F)F)c4)cc3)c(C)nc2cc1OCCN1CCOCC1",
    "Numeric Readout": 2.54
  },
  {
    "Query Smiles": "CO[C@H]1/C=C/O[C@@]2(C)Oc3c(C)c(O)c4c(O)c(c(/C=N/N5CCN(C)CC5)c(O)c4c3C2=O)NC(=O)/C(C)=C\\C=C\\[C@H](C)[C@H](O)[C@@H](C)[C@@H](O)[C@@H](C)[C@H](OC(C)=O)[C@@H]1C",
    "Numeric Readout": 2.24
  },
  {
    "Query Smiles": "O=C1NC(=O)C(c2ccccc2)(c2ccccc2)N1",
    "Numeric Readout": 1.97
  },
  {
    "Query Smiles": "COc1cc2cc(Oc3ccc(NC(=O)Nc4ccc(Cl)c(C(F)(F)F)c4)cc3)c(C)nc2cc1OCCN(C)C",
    "Numeric Readout": 2.06
  }
]

---

Entries and their measured TGI follow.
System: MOLT-4
Test: Anticancer activity against human MOLT-4 cells assessed as total cell growth inhibition incubated for 48 hrs by SRB assay
Type: functional

[
  {
    "Query Smiles": "COc1cc2cc(Oc3ccc(NC(=O)Nc4ccc(F)c(C(F)(F)F)c4)cc3)c(C)nc2cc1OCCN1CCOCC1",
    "Reading Unit": "µM",
    "TGI": 11.4
  },
  {
    "Query Smiles": "COc1cc2cc(Oc3ccc(NC(=O)Nc4ccc(Cl)c(C(F)(F)F)c4)cc3)c(C)nc2cc1OCCN1CCOCC1",
    "Reading Unit": "µM",
    "TGI": 10.5
  },
  {
    "Query Smiles": "COc1cc2cc(Oc3ccc(NC(=O)Nc4cc(C(F)(F)F)cc(C(F)(F)F)c4)cc3)c(C)nc2cc1OCCN1CCOCC1",
    "Reading Unit": "µM",
    "TGI": 4.29
  },
  {
    "Query Smiles": "CNC(=O)c1cc(Oc2ccc(NC(=O)Nc3ccc(Cl)c(C(F)(F)F)c3)cc2)ccn1",
    "Reading Unit": "µM",
    "TGI": 100
  }
]

---

Entries and their GI50
System: HCT-15
Experiment: Anticancer activity against human HCT-15 cells assessed as cell growth inhibition incubated for 48 hrs by SRB assay
Type: functional
Recorded Endpoint: GI50 (nM)

[
  {
    "Query Smiles": "CNC(=O)c1cc(Oc2ccc(NC(=O)Nc3ccc(Cl)c(C(F)(F)F)c3)cc2)ccn1",
    "Recorded Endpoint": "GI50",
    "Numeric Readout": 2510
  },
  {
    "Query Smiles": "COc1cc2cc(Oc3ccc(NC(=O)Nc4ccc(Cl)c(C(F)(F)F)c4)cc3)c(C)nc2cc1OCCN1CCOCC1",
    "Recorded Endpoint": "GI50",
    "Numeric Readout": 3180
  },
  {
    "Query Smiles": "COc1cc2cc(Oc3ccc(NC(=O)Nc4cc(C(F)(F)F)cc(C(F)(F)F)c4)cc3)c(C)nc2cc1OCCN1CCOCC1",
    "Recorded Endpoint": "GI50",
    "Numeric Readout": 1100
  },
  {
    "Query Smiles": "COc1cc2cc(Oc3ccc(NC(=O)Nc4ccc(F)c(C(F)(F)F)c4)cc3)c(C)nc2cc1OCCN1CCOCC1",
    "Recorded Endpoint": "GI50",
    "Numeric Readout": 1730
  }
]

---

Tested on: NCI-H322M
Assay: Anticancer activity against human NCI-H322M cells assessed as cell growth inhibition incubated for 48 hrs by SRB assay
Format: functional
Recorded Endpoint: GI50 (nM)

[
  {
    "Query Smiles": "COc1cc2cc(Oc3ccc(NC(=O)Nc4cc(C(F)(F)F)cc(C(F)(F)F)c4)cc3)c(C)nc2cc1OCCN1CCOCC1",
    "Recorded Endpoint": "GI50",
    "Numeric Readout": 1820
  },
  {
    "Query Smiles": "COc1cc2cc(Oc3ccc(NC(=O)Nc4ccc(Cl)c(C(F)(F)F)c4)cc3)c(C)nc2cc1OCCN1CCOCC1",
    "Recorded Endpoint": "GI50",
    "Numeric Readout": 2820
  },
  {
    "Query Smiles": "COc1cc2cc(Oc3ccc(NC(=O)Nc4ccc(F)c(C(F)(F)F)c4)cc3)c(C)nc2cc1OCCN1CCOCC1",
    "Recorded Endpoint": "GI50",
    "Numeric Readout": 3370
  },
  {
    "Query Smiles": "CNC(=O)c1cc(Oc2ccc(NC(=O)Nc3ccc(Cl)c(C(F)(F)F)c3)cc2)ccn1",
    "Recorded Endpoint": "GI50",
    "Numeric Readout": 2510
  }
]

Cited source: ChEMBL document CHEMBL5113398
